# SYSTEM_TESTED: T1, monkey TIM-3 extracellular domain protein with hFc tag (cTIM-3-hFc) (monkey)
# T1 construct: not shown: human IgG Fc fragment (hFc) of the pCpC vector
# T1 chain: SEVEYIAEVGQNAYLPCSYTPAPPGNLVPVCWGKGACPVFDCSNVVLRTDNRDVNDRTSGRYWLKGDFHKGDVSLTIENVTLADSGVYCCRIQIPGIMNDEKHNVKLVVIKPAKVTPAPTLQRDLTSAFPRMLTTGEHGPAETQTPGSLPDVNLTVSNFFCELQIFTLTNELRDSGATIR
# TEST: ELISA, coated monkey TIM-3 ECD protein, 0.0667 nM antibody
ENDPOINT_NAME: OD450

{"BINDER": "7A4F10 fully human TIM-3 antibody (human IgG4, kappa) (antibody, V domains shown) VH: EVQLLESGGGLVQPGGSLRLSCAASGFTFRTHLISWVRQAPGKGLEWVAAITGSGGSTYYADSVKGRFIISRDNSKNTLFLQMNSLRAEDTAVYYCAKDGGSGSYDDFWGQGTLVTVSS VL: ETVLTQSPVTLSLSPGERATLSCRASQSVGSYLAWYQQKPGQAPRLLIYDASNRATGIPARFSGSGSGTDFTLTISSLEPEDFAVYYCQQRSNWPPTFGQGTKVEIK", "ENDPOINT_NAME": "OD450", "NUMERIC_VALUE": 0.68}
{"BINDER": "34B6D8 fully human TIM-3 antibody (human IgG4, kappa) (antibody, V domains shown) VH: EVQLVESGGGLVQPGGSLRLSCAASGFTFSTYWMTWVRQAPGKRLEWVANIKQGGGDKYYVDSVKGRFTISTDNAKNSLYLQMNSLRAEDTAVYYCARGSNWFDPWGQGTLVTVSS VL: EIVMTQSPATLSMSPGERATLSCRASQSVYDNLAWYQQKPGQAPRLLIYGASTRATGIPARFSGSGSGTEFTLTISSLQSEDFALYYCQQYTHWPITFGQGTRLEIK", "ENDPOINT_NAME": "OD450", "NUMERIC_VALUE": 1.71}
{"BINDER": "134H3G6 fully human TIM-3 antibody (human IgG4, kappa) (antibody, V domains shown) VH: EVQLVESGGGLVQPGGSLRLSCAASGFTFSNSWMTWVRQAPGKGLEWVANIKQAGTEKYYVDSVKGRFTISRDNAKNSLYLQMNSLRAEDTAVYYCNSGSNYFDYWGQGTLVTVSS VL: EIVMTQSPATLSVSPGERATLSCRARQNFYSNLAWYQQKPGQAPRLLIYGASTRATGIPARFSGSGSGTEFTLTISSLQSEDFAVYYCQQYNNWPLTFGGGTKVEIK", "ENDPOINT_NAME": "OD450", "NUMERIC_VALUE": 1.3}
{"BINDER": "57F4E5 fully human TIM-3 antibody (human IgG4, kappa) (antibody, V domains shown) VH: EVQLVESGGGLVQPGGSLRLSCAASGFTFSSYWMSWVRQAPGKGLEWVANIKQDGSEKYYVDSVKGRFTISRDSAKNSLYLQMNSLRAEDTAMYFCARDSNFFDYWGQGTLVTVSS VL: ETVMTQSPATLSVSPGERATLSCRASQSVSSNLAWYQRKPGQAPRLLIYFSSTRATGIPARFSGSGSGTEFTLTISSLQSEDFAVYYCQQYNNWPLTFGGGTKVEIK", "ENDPOINT_NAME": "OD450", "NUMERIC_VALUE": 1.34}
